Biological target: UniProt P23739
Sequence (P23739 1-1013 limits assumed): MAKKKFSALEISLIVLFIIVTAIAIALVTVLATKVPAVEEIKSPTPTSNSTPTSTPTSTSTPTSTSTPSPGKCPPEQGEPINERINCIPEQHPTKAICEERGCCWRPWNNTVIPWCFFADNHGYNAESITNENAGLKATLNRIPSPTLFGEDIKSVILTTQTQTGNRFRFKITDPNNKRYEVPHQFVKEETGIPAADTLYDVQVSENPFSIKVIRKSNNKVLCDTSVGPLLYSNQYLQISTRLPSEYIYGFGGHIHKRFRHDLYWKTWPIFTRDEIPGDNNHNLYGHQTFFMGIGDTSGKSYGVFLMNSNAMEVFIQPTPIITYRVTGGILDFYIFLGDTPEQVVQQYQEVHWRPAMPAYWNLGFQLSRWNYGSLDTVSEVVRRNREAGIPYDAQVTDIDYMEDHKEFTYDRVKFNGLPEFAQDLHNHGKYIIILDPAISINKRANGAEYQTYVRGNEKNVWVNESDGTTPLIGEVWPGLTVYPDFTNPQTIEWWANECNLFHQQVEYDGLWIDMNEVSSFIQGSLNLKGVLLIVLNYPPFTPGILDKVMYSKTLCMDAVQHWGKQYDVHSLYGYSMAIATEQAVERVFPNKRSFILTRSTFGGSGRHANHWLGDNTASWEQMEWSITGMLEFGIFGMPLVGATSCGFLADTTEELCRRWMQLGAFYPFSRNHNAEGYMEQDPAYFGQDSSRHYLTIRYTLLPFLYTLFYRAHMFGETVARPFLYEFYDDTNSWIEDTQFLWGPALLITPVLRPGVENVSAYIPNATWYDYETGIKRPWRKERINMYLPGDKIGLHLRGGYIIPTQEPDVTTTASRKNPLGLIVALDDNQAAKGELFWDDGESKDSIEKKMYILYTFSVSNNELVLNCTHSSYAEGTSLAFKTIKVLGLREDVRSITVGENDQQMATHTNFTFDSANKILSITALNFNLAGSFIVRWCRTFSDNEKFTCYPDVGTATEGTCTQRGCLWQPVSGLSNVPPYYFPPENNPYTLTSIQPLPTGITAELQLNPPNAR
Sequence (P23739 1014-1841 limits assumed): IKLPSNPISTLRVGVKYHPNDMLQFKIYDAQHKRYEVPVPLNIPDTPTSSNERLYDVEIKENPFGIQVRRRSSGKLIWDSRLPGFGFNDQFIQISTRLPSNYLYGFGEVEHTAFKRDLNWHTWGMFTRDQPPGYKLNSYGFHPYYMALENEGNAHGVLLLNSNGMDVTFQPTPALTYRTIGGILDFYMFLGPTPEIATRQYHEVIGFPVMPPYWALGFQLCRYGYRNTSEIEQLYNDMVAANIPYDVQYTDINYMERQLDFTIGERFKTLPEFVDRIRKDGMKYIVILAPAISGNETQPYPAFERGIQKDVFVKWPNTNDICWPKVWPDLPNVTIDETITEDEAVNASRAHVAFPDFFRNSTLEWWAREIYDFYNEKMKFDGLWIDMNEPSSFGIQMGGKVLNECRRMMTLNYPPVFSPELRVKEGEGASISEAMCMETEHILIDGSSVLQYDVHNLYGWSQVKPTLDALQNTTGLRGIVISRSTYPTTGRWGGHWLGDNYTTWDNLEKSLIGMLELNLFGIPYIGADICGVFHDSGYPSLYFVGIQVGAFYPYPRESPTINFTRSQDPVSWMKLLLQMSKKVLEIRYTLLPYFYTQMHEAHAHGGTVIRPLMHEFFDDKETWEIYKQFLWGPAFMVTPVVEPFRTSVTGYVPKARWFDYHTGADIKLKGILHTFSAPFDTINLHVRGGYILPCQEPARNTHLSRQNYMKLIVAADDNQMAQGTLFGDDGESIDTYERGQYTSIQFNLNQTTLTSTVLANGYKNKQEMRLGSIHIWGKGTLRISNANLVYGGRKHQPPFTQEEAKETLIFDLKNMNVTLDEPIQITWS
Test: Inhibition of Wistar rat small intestine sucrase after 30 mins
measure: IC50 (µM)

[a] CCCCCCCC[C@@H]1N[C@@H](CO)[C@H](O)[C@H]1O
[b] CCCC[C@H]1N[C@@H](CO)[C@H](O)[C@H]1O
[c] CCCCCCCC[C@H]1N[C@@H](CO)[C@H](O)[C@H]1O
Query: Please put the entries in order of rising IC50. Show the ranking through the labels, in the order asked for.
Response: a, b, c
(a: 0.45 µM, b: 392 µM, c: 590 µM)
